testSummary: soluble fraction after stress (log2 fold change); higher = more stays soluble; pooled small domains, quantitative proteomics;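 note: 20 min heating vs room temperature control held 20 min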
experimentalSetup: stress: 75 degC
Here, each record is paired with measured soluble fraction (log2) data.

Answered cases to consult:
- macromoleculeSequence: "HMPGEATVPSVIGMTKAEAKAKLQASGFELGYSEFVASDKPKGEIVEQDPGAGETAKGGTEVNVKISDGS"
  soluble fraction (log2): 0.0718
- macromoleculeSequence: "HMKVTADVVVADRLKAWIISNNLKPGDRLPTEQKLSEELGVARHTLREGIKRLSQLGIIGSRTGSGMYVKN"
  soluble fraction (log2): -1.06
- macromoleculeSequence: "HMNLGAHVYWRNHRAYGDFREYEDVGGGREALALPGSTWGTKDPRVAQALFAARLTEFQEARVGR"
  soluble fraction (log2): -0.989

Look up soluble fraction (log2): HMDTNPKVIITMDGVNVRSSASTGSDILFIAEKGEEYELISESGDFYKILYEGNKEGYVASWLVETSE
0.239

I have this sequence here, HMARAPIYPDGLTQREVEVLSLVAAGKTDREIAEELFIALRTVTTHVGNILNKIGAANRTEAAGYATRQGL , and I need its recorded soluble fraction (log2).
-1.7

Reported soluble fraction (log2), sequence HMAHTGGNTLTREKAVSVRSASDALLFEIHWNETPREDILSTREEKVDGKTYSIITIRTGKGREDHYYLLS : ____
-1.35

What soluble fraction (log2) value was documented for this sequence, HMINEVVSLRDVPSFIGKAKRDVIRIAEENNLKIKINGNGYVKEQTPNPGNKYKSNQEIKVFLEPG ?
-0.0743

Please give the measured soluble fraction (log2) for this sequence: HMAWIAVATKEDYSEYEWKELSPTTDWSTQTFDLGDLAGKTIYAVKMFFDHDTDVKDYKFNLGQLSITSN
-0.189

====

testSummary: soluble fraction after stress (log2 fold change); higher = more stays soluble; pooled small domains, quantitative proteomics
experimentalSetup: stress: 75 degC
endpointName: soluble fraction (log2)
Format: numeric value only, no unit, no commentary.

The following sequences have reported results that may help.
- macromoleculeSequence: "HMGDADDLSRELLQQGLSLKEAVADFERRYLQQAMQRHSSIASVSEALDVHFSTLWRKLVKYNLV"
  soluble fraction (log2): -0.104
- macromoleculeSequence: "HMNTPNYDVLYRGLADADAGQIMEALQKSNIPFKVDSHSGVLLVPADQVHEARLKLASQGLPRG"
  soluble fraction (log2): -0.119

Consider now this further sequence.
For the sequence shown here, HMLGSGSKEQQLVILNNILERQVQAFNLQGGQEYPMVTLKNFYNTLSKMIENAGLKNVENYFVNPDVGKQM , give the reported soluble fraction (log2).
-0.392

====

testSummary: soluble fraction after stress (log2 fold change); higher = more stays soluble; pooled small domains, quantitative proteomics
experimentalSetup: stress: 75 degC
endpointName: soluble fraction (log2)
Form rule: numeric answer, no unit written next to it.

- macromoleculeSequence: "HMKTLLSMNIKNLRKKKNMTLEELAEKVGTSKQTIQRYESGKISNIPSDKIELLAKYLDTTPAKLMGW"
  assayValue: -0.139
- macromoleculeSequence: "HMAPAPYLVKVTANKLNIRSGPGTNYKIQGAITDKGTYTIVDTQGRWGKLKSGAGWIYLNYTKK"
  assayValue: -1.98
- macromoleculeSequence: "HMHSKQRDAIFENLRSRKDHPTAEEIYLSLKPAMPAISLATVYRNLAQLENEGLILRLGSGGSARYDGDT"
  assayValue: -0.467

Okay, now this sequence:
Suppose we examine the sequence HMQALTLVGQDAKDAKAALDAVDIQPAKTETDRYIYVLTEQQAQELGRTVDALYGVEGSLTLILEV ; what soluble fraction (log2) value has been reported?
0.253

====

testSummary: soluble fraction after stress (log2 fold change); higher = more stays soluble; pooled small domains, quantitative proteomics
experimentalSetup: stress: 75 degC
The class of a record is decided solely by its measured soluble fraction (log2); consult band A: < -2; band B: ≥ -2 and < -0.7; band C: ≥ -0.7

Sample answers from the record:
- macromoleculeSequence: "HMSSSYVYGGNGEIVILSDVSKHLNVYNLNGQKVTDVNLTAGELQRISIATGIYVVGGKKIVV"
  class: "band A"
- macromoleculeSequence: "HMVKDIEFSLPLEQDYYKVLISVKDSQGKRQVYEELHRAGDTVYAAVRYYGSGELEIHLNGKFYKTIK"
  class: "band B"
- macromoleculeSequence: "HMSEQMQVGELVFQLHRKAIKNLHINVLPPDGFVRVSAPQAMTETAIRTAVISRLPWIRRQQQAFAAQ"
  class: "band A"
- macromoleculeSequence: "HMTFFDDLLYQAKAAVDNDPSIKPSLHNRAIIEILYQQGVFNMKNAVEHVAELLEISKNTVYLHLRSVKG"
  class: "band B"
- macromoleculeSequence: "HMEPEVSNTYEKVLGMHHFSSTRSHQLHDLVRQANALELSLGEIESIAQSAKDGAQVISDIKHWMEPNRQ"
  class: "band C"
- macromoleculeSequence: "HMEAVLTISPGMYSESVSAELVRLGIITNQKEFNSYLVNNGYAERIQTGDFKIKADMSYDEIARIITK"
  class: "band C"

Field: next sequence
Just checking, what class would you give HMISSKDIINDEDGARLGKIADVEIDVATGKILSVHVYRSFKLLHLFGNKDVVQIPWNKIMKIGSDVVIVE here?
band C

====

testSummary: soluble fraction after stress (log2 fold change); higher = more stays soluble; pooled small domains, quantitative proteomics
experimentalSetup: stress: 75 degC
# soluble fraction (log2) >= -0.1 gives class 1, anything below gives class 0

Recorded results for 5 sequences are shown here.
- macromoleculeSequence: "HMKQVSDTGAIDAAIREVMDANPDKVAEYRSGKDKLFGFFVGQIMRAMAGKAAPVVVNDRLKALLD"
  class: "class 1"
- macromoleculeSequence: "HMPRSREVHVEPGMVLEDVTTGFVGAVIRTEKSAGIYVIELEDRRGRRRSFPLGGGFWLDGRPIIALPPLP"
  class: "class 0"
- macromoleculeSequence: "HMGAQINSPISGTILKYLVKNGDKITKDQPLVNIESMKMENTIKSDKEGIVNNINFKIGDSVNTADTLLTL"
  class: "class 1"
- macromoleculeSequence: "HMGAIVTVPDLAGRPQPGAEAELRRSGLVPKVRTSYSLTGTRGTVISQTPPAGSRVREGAEVEVVVSRGLN"
  class: "class 1"
- macromoleculeSequence: "HMADRVFGHIPGVAVGSIFPDRRSLSQTGVHRPTQAGISGNKTDGADSIVVSGGYRDDRDYGDLIIYTG"
  class: "class 0"

Reported soluble fraction (log2) reaches at least -0.1 for HMGDPVRVDKFLHDMNVGTRSQIRKLIKEKAVFVNDVVAKSGRVKVDPVVDQVRLGEQVITYQ ?
class 0

Hello, I need to know if HMPQQVFKREDLQKWGLTGQADSRKRREKLGQLLGIGYGNGKQLIHRLNMFQVDRATFEQAIKQINQEEDH has measured soluble fraction (log2) not below -0.1. Thanks!
class 0

Hi team, for HMSMSKISNLLEIMMIIQYKGLTTASELAQSLGVDKKTVYRYINSLSKANIPIYTKKGRYGGFYIDKNF , is the recorded soluble fraction (log2) at or above -0.1?
class 0

Is it the case that HMSEDTYNTLTKGTRVYNGVDYGAKYGYNPLYYFLNYNDLRIAYGADPAKLVEHYALFGIKENRVANRQIT has soluble fraction (log2) reaching or exceeding -0.1?
class 0

Hello, I need to know if HMAYSEEDRRRVREELLTTALKLMSTQGIQHTTVEQVYRSVGISRSFFYAFFPTKEDLIVEAL has measured soluble fraction (log2) not below -0.1. Thanks!
class 1

Check if soluble fraction (log2) >= -0.1 (inclusive). Item: HMVIMDLIVNGEPKYVVGEQLHLILDELGYSGKHFVVELNGEILSKEAYTTTKLTAADRLEIVSFVGG
class 0

API: above_or_equal(metric=soluble fraction (log2), cutoff=-0.1) for item HMDFSNVNFSQVSDSELDLLMRRASAQGYTQFDLLKIARAQGLTQAEIEKLDKRFKSAETVAYVAENA
class 1

====

Overview of reported soluble fraction (log2) across a group of sequences:
testSummary: soluble fraction after stress (log2 fold change); higher = more stays soluble; pooled small domains, quantitative proteomics
experimentalSetup: stress: 75 degC
# respond with the number and nothing more

Known soluble fraction (log2) results, listed for orientation:
- macromoleculeSequence: "HMGHEALSSKLDEIQGVGKEKRSLLLDHFKTFERIKNASMEELEAVPSLGKNTAKAVFRFFHS"
  soluble fraction (log2): -0.0805
- macromoleculeSequence: "HMTRVDKLQTWLSLPREQRDWDEGALMLLQLTGNKIMYRNLSVNPEGKANFIEGKLQQYLEFRLA"
  soluble fraction (log2): -1.25
- macromoleculeSequence: "HMESEIYKKIEKSRLLELAFTKSQKGDLTGAYDLYYQAFTKYDVIADNQNRYFEDFISLIRRKQQQD"
  soluble fraction (log2): -2.54
- macromoleculeSequence: "HMPRRSYLDARKKLLGMLNSPDFNSGDQIPAERELSEVLGISRVTVRKIITELIDEGVLERRGNQGTWLVD"
  soluble fraction (log2): -1.01

Item under review: HMNPDTERIREFVAVSLKNRKVATSGEIQNMIVKQFKNFKLKSHGYSNMKSFLSSIDKIQLNSNGKYSLK . Reported soluble fraction (log2)?
-1.89

Report soluble fraction (log2) for HMLPDGEAFVKVNTSLNIRTGPWGQIVGWFHNNDKVKIIGRDGDWYKISHNGQTRYIHSRYVSSSR please.
-1.2

Need soluble fraction (log2) of HMPAEEVPLYKAVVVTTPPNRLRVRFSPAGDFKRWLQSGEEVDVYQELGDWRRIEPNGWSSAEWLQRVG , thanks.
-0.465

Value lookup for soluble fraction (log2); key = HMPYLVNGFILEVQSDDNNPVGTLKRRYAVAKNKQGVILLEGEKSFSSNDQILINELKFYIQSNDLKA
-2.56

Can you look up the measured soluble fraction (log2) of HMTNIQFINLKMTDNHPWIHQYIKDIILPPQTRIVMIKRNDIKTIPKGERRIEKDDELILSAFESQT for me?
-2.06

Item under review: HMIDTTKILPGQEFKNMQELSVALTGQKMPAGKGYVLQQEKFKLYFSWKKITGTHKLIIDEIYEEPKT . Reported soluble fraction (log2)?
-3.23

Field request: soluble fraction (log2) | item: HMLQFTYPRLHTKKSWYVDFMSFDPGAGKMRRKKFMLDGIPKITDRRKRAAELIEVLTKQLRAGWSPWVNV
-3.85
